- Test system: SARS-CoV-2
- experiment description: microbe, parasite or virus in culture
- Format: cell-based
- condition details: Severe acute respiratory syndrome coronavirus 2, Vero C1008, VERO E6 cells, compound plus 0.5 µM remdesivir; read-out: EC50 viral proliferation with remdesivir

# smiles string, EC50 / µM
data = [
    ("Cc1cc2nc3c(=O)[nH]c(=O)nc-3n(C)c2cc1C=O", 22.7),
]

* * *

- assay target: SARS-CoV-2 PLpro (nsp3 1564–1878) (Severe acute respiratory syndrome coronavirus 2, UniProt P0DTD1)
- experiment description: biochemical
- Assay type: biochemical
- condition details: screen, normalized to control without compound, Table S1

# compound, Normalized activity High (3.75 µM)
records = [
    ("O=C1c2ccccc2-c2nc3nnnn3nc21", -0.02621),
    ("CCCn1c(=O)c2[nH]c(-c3ccc(S(=O)(=O)O)cc3)nc2n(CCC)c1=O", 0),
    ("Cn1c(=O)c2[nH]c(-c3ccc(S(=O)(=O)O)cc3)nc2n(C)c1=O", 0),
    ("CC[C@@H]1Cc2cc(O)ccc2C2=C1c1ccc(O)cc1C[C@H]2CC (relative stereo)", 0),
]

* * *

- assay target: SARS-CoV-2 PLpro (nsp3 1564–1878) (Severe acute respiratory syndrome coronavirus 2)
- experiment description: biochemical
- Format: biochemical
- condition details: fluorescent-based assay
pIC50: −log10 of the molar value.
property label: pIC50

# molecule, recorded number
data = [
    ("CC1(C)CCC2=C(O1)c1ccccc1C(=O)C2=O", 6.21),
    ("O=C1c2ccccc2-c2nc3nnnn3nc21", 6.58),
    ("Cc1cccc2c3c(ccc12)C1=C(C(=O)C3=O)[C@@H](C)CO1 [Dihydrotanshinone I]", 6.23),
]

* * *

The entries below are paired with their reported Z score.
- assay target: SARS-CoV-2 PLpro (nsp3 1564–1878) (Severe acute respiratory syndrome coronavirus 2, UniProt P0DTD1)
- experiment description: biochemical
- Assay type: biochemical
- condition details: screen, Table S1
property label: Z score

# compound, property label, result
rows = [
    ("Cn1c(=O)c2[nH]c(-c3ccc(S(=O)(=O)O)cc3)nc2n(C)c1=O [8-(p-Sulfophenyl)theophylline]", "Z score", -14.155),
    ("O=C1c2ccccc2-c2nc3nnnn3nc21 [PDK1/Akt/Flt Dual Pathway Inhibitor]", "Z score", -14.531),
    ("CCCn1c(=O)c2[nH]c(-c3ccc(S(=O)(=O)O)cc3)nc2n(CCC)c1=O [1,3-Dipropyl-8-p-sulfophenylxanthine]", "Z score", -14.155),
    ("CC[C@@H]1Cc2cc(O)ccc2C2=C1c1ccc(O)cc1C[C@H]2CC (relative stereo)", "Z score", -14.155),
]

* * *

- assay target: SARS-CoV-2 PLpro (nsp3 1564–1878) (Severe acute respiratory syndrome coronavirus 2, UniProt P0DTD1)
- experiment description: biochemical
- Parameters: FRET-quenched peptide (Pro3) cleavage by PLpro, 10 min pre-incubation, slope over 20 min, normalised to no-compound control
- condition details: read-out: % of control remaining
Structures can show the parent of a compound that is named as a salt.
The entries below are paired with their reported remaining activity at 1.25 µM.

# compound, remaining activity at 1.25 µM (%)
rows = [
    ("O=C1CCC(c2ccccc2)(C2CCN(Cc3ccccc3)CC2)C(=O)N1 (stereo not shown) [Benzetimide (hydrochloride)]", 99.9),
    ("NC(=O)NCCCC[C@H](N)C(=O)O [L-Homocitrulline]", 101),
    ("COc1cc2c(c(OC)c1OC)-c1ccc(OC)c(=O)cc1[C@@H](NC=O)CC2 [N-Formyl-Deacetylcolchicine]", 102),
    ("CCOP(=O)(OCC)C(=Cc1cc(C(C)(C)C)c(O)c(C(C)(C)C)c1)P(=O)(OCC)OCC [SR 12813]", 96.5),
    ("CC1(C)CCCC(C)(C)N1[O] [TEMPO]", 95.5),
    ("O/N=C/c1cc[n+](C[n+]2ccc(/C=N/O)cc2)cc1 [MMB-4]", 95.4),
    ("Oc1ccc(-c2c(-c3ccccc3)nn3c(C(F)(F)F)cc(C(F)(F)F)nc23)cc1 [PHTPP]", 103),
]

* * *

The entries below are paired with their reported remaining activity at 3.75 µM.
- assay target: SARS-CoV-2 PLpro (nsp3 1564–1878) (Severe acute respiratory syndrome coronavirus 2, UniProt P0DTD1)
- experiment description: biochemical
- Set-up: FRET-quenched peptide (Pro3) cleavage by PLpro, 10 min pre-incubation, slope over 20 min, normalised to no-compound control
- condition details: read-out: % of control remaining
Where a name gives a salt, the structure may show the parent alone.

# molecule, remaining activity at 3.75 µM [%]
records = [
    ("CN1C(=O)C(Cc2ccc3ccccc3c2)N=C(c2ccc(O)cc2)c2cc(Cl)ccc21 (stereo not drawn)", 93.6),
    ("CCCCCCC(C)(C)c1ccc([C@@H]2C[C@H](O)CC[C@H]2CCCO)c(O)c1", 106),
    ("NC(=O)NCCCC[C@H](N)C(=O)O", 89.3),
    ("CC1(C)[C@@H](O)C[C@H]2[C@](C)(O)[C@@H]3CC[C@@H]4[C@@H](O)[C@@]3(C[C@@H](O)[C@@]21O)C[C@@]4(C)O", 104),
    ("C[C@@H]1Cc2c(Cl)cc(C(=O)N[C@@H](Cc3ccccc3)C(=O)O)c(O)c2C(=O)O1", 92.8),
    ("C[C@]12CC[C@H](O)C[C@H]1CC[C@@H]1[C@@H]2CC[C@]2(C)[C@@H](C3=CC(=O)OC3)[C@@H](O)C[C@]12O", 104),
    ("CCN(CC)c1ncnc2c1ncn2[C@@H]1O[C@H](COP(=O)(O)OP(=O)(O)C(Br)(Br)P(=O)(O)O)[C@@H](O)[C@H]1O [ARL 67156 trisodium salt]", 96.3),
    ("CC1(C)CC(O)CC(C)(C)N1[O]", 95.9),
    ("O/N=C/c1cc[n+](C[n+]2ccc(/C=N/O)cc2)cc1", 93.7),
    ("CC1(C)CCCC(C)(C)N1[O]", 99.1),
    ("CC(C(=O)O)C(=O)O [Methylmalonate]", 95.5),
    ("CCCC(C)(C)c1ccc2c(c1)OC(C)(C)[C@@H]1CC=C(C)C[C@@H]21", 104),
    ("C/C(=C/C=C/[C@@H](C)C(=O)O)[C@H]1CN[C@H](C(=O)O)[C@H]1CC(=O)O", 102),
    ("CSCC[C@H](NC(=O)[C@H](Cc1ccccc1)NC(=O)CNC(=O)CNC(=O)[C@@H](N)Cc1ccc(O)cc1)C(=O)O", 101),
    ("C[S+]([O-])CCCN=C=S (stereo not drawn)", 90.7),
]

* * *

- assay target: SARS-CoV-2 PLpro (nsp3 1564–1878) (Severe acute respiratory syndrome coronavirus 2, UniProt P0DTD1)
- experiment description: biochemical
- Type: biochemical
- condition details: screen, 1.25 µM compound; number after the slash is the control without compound
Think of 400 as a floor: if slope value (of slope value/control) 1.25 µM stands on it or above, it is t; beneath it, f.

# compound, label
measured = [
    ("Cc1cc2nc3c(=O)[nH]c(=O)nc-3n(C)c2cc1C=O [Ro 08-2750]", "f"),
    ("O=C(O)c1cccc(O)c1O [Pyrocatechuic acid]", "t"),
    ("O=C1c2ccccc2-c2nc3nnnn3nc21 [PDK1/Akt/Flt Dual Pathway Inhibitor]", "f"),
    ("Cc1ccc(NC2=CC(=O)c3sc(C)nc3C2=O)cc1 [Cdk4 Inhibitor III]", "f"),
    ("Cc1cccc2c3c(ccc12)C1=C(C(=O)C3=O)[C@@H](C)CO1 [Dihydrotanshinone I]", "t"),
]
